These measurements were taken from the supplement of paper PMC10037445.

- Tested on: RAW-Dual
- assay.remarks: NF-kB SEAP reporter activity, fold change vs agonist alone; higher = enhanced NF-kB activity
- cond: library stock concentration (final ~1000-fold dilution): 10 mM; cytotoxicity flag (confluency mask): cytotoxic (confluency <70% of control); agonist: Imiquimod (TLR7) […]
The full ranking holds about 2,900 compounds; the median of “NF-kB SEAP reporter activity, fold change vs agonist alone” is about 0.99, and the highest 2% start at about 2.6. The list comes from a sample in which the highest values are over-represented; it also holds close analogues and randomly drawn compounds.
observed.property: NF-kB SEAP reporter activity
Keep the answer to the number alone.

### Prompt Look at this compound and give its reported NF-kB SEAP reporter activity. `Cl.NCCOCCOCCNC(=O)Cc1ccc(Nc2nc(NCc3ccc(F)cc3)nc(NCC3CCCCC3)n2)cc1`
### Response 1.05

### Prompt Look at this compound and give its reported NF-kB SEAP reporter activity. `CC(C)CNc1ccnc(NCc2csc(-c3ccccc3)n2)n1.Cl`
### Response 1.85

### Prompt Look at this compound and give its reported NF-kB SEAP reporter activity. `CCNC(=O)c1cc2c(-c3cc(C(C)(C)O)ccc3Oc3c(C)cc(F)cc3C)cn(C)c(=O)c2[nH]1`
### Response 1.4

### Prompt Look at this compound and give its reported NF-kB SEAP reporter activity. `CC(=O)c1ccc2c(c1)c1cc(C(C)=O)ccc1n2CCNC(C)C`
### Response 0.147

### Prompt Look at this compound and give its reported NF-kB SEAP reporter activity. CC(NC(=O)/C(C#N)=C/c1cccc(Br)n1)c1ccccc1 (stereo unspecified)
### Response 0.268

### Prompt Look at this compound and give its reported NF-kB SEAP reporter activity. CNC1CCC(c2ccc(Cl)c(Cl)c2)c2ccccc21.Cl (stereo unspecified)
### Response 1.64

### Prompt Look at this compound and give its reported NF-kB SEAP reporter activity. `O=C(NO)c1cnc(NC2(c3ccccc3)CC2)nc1`
### Response 1.46

### Prompt Look at this compound and give its reported NF-kB SEAP reporter activity. Cc1ccc(C(=O)N(CCCN)C(c2nc3cc(Cl)ccc3c(=O)n2Cc2ccccc2)C(C)C)cc1 (stereo unspecified)
### Response 1.41

### Prompt Look at this compound and give its reported NF-kB SEAP reporter activity. COC(=O)CC(O)(CCCC(C)(C)O)C(=O)OC1C(OC)=CC23CCCN2CCc2cc4c(cc2C13)OCO4 (stereo unspecified)
### Response 0.141

### Prompt Look at this compound and give its reported NF-kB SEAP reporter activity. CC(C)(C)CC1NC(C(=O)NC2CCC(O)CC2)C(c2cccc(Cl)c2F)C12C(=O)Nc1cc(Cl)ccc12 (stereo unspecified)
### Response 1.55

### Prompt Look at this compound and give its reported NF-kB SEAP reporter activity. `Cc1cc(C)cc(C(=O)NOCCCCCC(=O)NO)c1`
### Response 1.41

### Prompt Look at this compound and give its reported NF-kB SEAP reporter activity. `O=C(NC1(c2ccccc2)CC1)c1c(CN2CCC(N3CCCCC3)CC2)c(-c2cccc(C(F)(F)F)c2)nc2cc(Br)ccc12`
### Response 0.916

### Prompt Look at this compound and give its reported NF-kB SEAP reporter activity. `CN1CCc2cc(Nc3ncc(C4CC4)c(NCCCNC(=O)C4CCC4)n3)ccc2C1`
### Response 0.243

### Prompt Look at this compound and give its reported NF-kB SEAP reporter activity. `Cc1cc2c(C(N)=O)cccc2n1-c1nc2c(c(NCc3ccccc3)n1)COCC2`
### Response 0.297

### Prompt Look at this compound and give its reported NF-kB SEAP reporter activity. `CC(C)(C)c1nc(-c2ccc(NC(=O)Nc3cccc(C(F)(F)F)c3)c3ccccc23)c2c(N)nccn12`
### Response 0.139

### Prompt Look at this compound and give its reported NF-kB SEAP reporter activity. `O=S(=O)(NCCN1CCNCC1)c1ccc(NC2CCCCC2)c(NCc2ccccc2)c1`
### Response 1.27

### Prompt Look at this compound and give its reported NF-kB SEAP reporter activity. C=Cc1c(C)c2cc3nc(cc4[nH]c(cc5nc(cc1[nH]2)C(C)=C5CCC(=O)O)c(CCC(=O)OC)c4C)C1(C)C3=CC=C(C(=O)OC)C1C(=O)OC (stereo unspecified)
### Response 0.297

### Prompt Look at this compound and give its reported NF-kB SEAP reporter activity. `Cc1nc(Nc2cnn(C3CCNCC3)c2)nc2c1N(C)C(=O)c1cc3ccccc3cc1N2C`
### Response 1.56

### Prompt Look at this compound and give its reported NF-kB SEAP reporter activity. `C1=CCOCc2cc(ccc2OCCN2CCCC2)Nc2nccc(n2)-c2cccc(c2)COC1`
### Response 1.52

### Prompt Look at this compound and give its reported NF-kB SEAP reporter activity. `CC(O)C(=O)O.CN1CCN(c2ccc3nc(-c4c(N)c5c(F)cccc5[nH]c4=O)[nH]c3c2)CC1`
### Response 0.335

### Prompt Look at this compound and give its reported NF-kB SEAP reporter activity. CC(C)COCC(CN(Cc1ccccc1)c1ccccc1)N1CCCC1.Cl.O (stereo unspecified)
### Response 0.745

### Prompt Look at this compound and give its reported NF-kB SEAP reporter activity. `O=C(Nc1ccc([N+](=O)[O-])cc1O)Nc1ccccc1Br`
### Response 1.47

### Prompt Look at this compound and give its reported NF-kB SEAP reporter activity. `CC(C)N(CCC(=O)c1ccc2ccccc2c1)Cc1ccccc1.Cl`
### Response 1.07

### Prompt Look at this compound and give its reported NF-kB SEAP reporter activity. `CC(C)COc1ccc(CNC(=O)N(Cc2ccc(F)cc2)C2CCN(C)CC2)cc1.CC(C)COc1ccc(CNC(=O)N(Cc2ccc(F)cc2)C2CCN(C)CC2)cc1.O=C(O)C(O)C(O)C(=O)O`
### Response 0.496

### Prompt Look at this compound and give its reported NF-kB SEAP reporter activity. C=C(C)C1CCC2(C(=O)O)CCC3(C)C(CCC4C5(C)CCC(OC(=O)CC(C)(C)C(=O)O)C(C)(C)C5CCC43C)C12 (stereo unspecified)
### Response 0.823

### Prompt Look at this compound and give its reported NF-kB SEAP reporter activity. COc1ccc2cc1Oc1ccc(cc1)CC1c3cc(c(OC)cc3CCN1C)Oc1c(O)c(OC)cc3c1C(C2)N(C)CC3 (stereo unspecified)
### Response 0.618

### Prompt Look at this compound and give its reported NF-kB SEAP reporter activity. `CN1CCN(C2CCN(C(=O)Nc3cc(Oc4ccc(NC(=O)C5(C(=O)Nc6ccc(F)cc6)CC5)c(F)c4)ccn3)CC2)CC1`
### Response 2.76

### Prompt Look at this compound and give its reported NF-kB SEAP reporter activity. `O=C(CCCCCCC(=O)Nc1ccccc1)NO`
### Response 2.38

### Prompt Look at this compound and give its reported NF-kB SEAP reporter activity. `CN1CCN(c2nc(C3=C(c4c[nH]c5ccccc45)C(=O)NC3=O)c3ccccc3n2)CC1`
### Response 2.99

### Prompt Look at this compound and give its reported NF-kB SEAP reporter activity. `CS(=O)(=O)O.Cc1ccc(NC(=O)c2ccc(CN3CCN(C)CC3)cc2)cc1Nc1nccc(-c2cccnc2)n1`
### Response 1.24

### Prompt Look at this compound and give its reported NF-kB SEAP reporter activity. `CN1CCN(Cc2ccc(NC(=O)Nc3ccc(Oc4ccnc(N)n4)cc3)cc2C(F)(F)F)CC1`
### Response 0.146

### Prompt Look at this compound and give its reported NF-kB SEAP reporter activity. CCc1cnn2c(NCc3ccc[n+]([O-])c3)cc(N3CCCCC3CCO)nc12 (stereo unspecified)
### Response 0.308

### Prompt Look at this compound and give its reported NF-kB SEAP reporter activity. `CN1C(=O)C(C)(C)Oc2c(-c3cn(C)c(=O)c4[nH]ccc34)cc(S(C)(=O)=O)cc21`
### Response 1.56

### Prompt Look at this compound and give its reported NF-kB SEAP reporter activity. `CCS(=O)(=O)Nc1ccc(Oc2ccc(F)cc2F)c(-c2cn(C)c(=O)c3[nH]ccc23)c1`
### Response 1.54

### Prompt Look at this compound and give its reported NF-kB SEAP reporter activity. `CCN(CC)CCCCNc1ncc2cc(-c3cc(OC)cc(OC)c3)c(NC(=O)NC(C)(C)C)nc2n1`
### Response 2.8

### Prompt Look at this compound and give its reported NF-kB SEAP reporter activity. `CC/C(=C(\c1ccc(O)cc1)c1ccc(OCCNC)cc1)c1ccccc1.Cl`
### Response 0.387
